Tested on: Saccharomyces cerevisiae
test: protein stability index of tFT-peptide fusion (C-terminal peptide) (PSI (0-1 scale)); higher = more stable (slower turnover)
condition.label: genetic background: wild type; temperature: 30 C
Parameter protein stability index: see the listing below.
Answer with a number only.

As a guide, the following entries are already answered.
DKRNLLEILDFS [RRT13 C-terminal 12 aa]; 0.695
QIADDRPWCRME [YHC3 C-terminal 12 aa]; 0.683
KMVLSHMKEKKD [YGL140C C-terminal 12 aa]; 0.682
FSFTEEPRIVMI [DCD1 C-terminal 12 aa]; 0.699

Query: For the sequence KTATTLPGRRFV [LUC7 C-terminal 12 aa] , what protein stability index is on record?
Reply: 0.704

Query: For the sequence EKKSKKEKKEKK [NOP58 C-terminal 12 aa] , what protein stability index is on record?
Reply: 0.717

Query: For the sequence VVGFYFQGALSE [VNX1 C-terminal 12 aa] , what protein stability index is on record?
Reply: 0.708

Query: For the sequence HFASSLVSFLSK [ICT1 C-terminal 12 aa] , what protein stability index is on record?
Reply: 0.718
